Counter-ions that a name gives are not always drawn.
observationType: melting point

# lookup: melting point of CCC(CC)(NC(=O)c1c(C)nn2c1NC(c1ccc(C)cc1)CC2(C)C)c1ccc(C)cc1 (stereo not drawn) (as salt: HCl) 152 to 154 °C

# lookup: melting point of CCC(CC)(NC(=O)c1cnn2c1NC(c1cccc(OC)c1)CC2(C)C)c1ccc(C)cc1 (stereo not drawn) (as salt: HCl) 168 to 169 °C

# lookup: melting point of O=C(c1cnn2c1NC(c1ccccc1)CC2C(F)(F)F)N1CCc2nn(-c3ccc(Cl)cc3)cc2C1 (stereo not drawn) 183 to 184 °C

# lookup: melting point of CCC(CC)(Cc1ccc(C)cc1)NC(=O)c1cnn2c1NC(c1ccccc1)CC2(C)C (stereo not drawn) 150 to 151 °C

# lookup: melting point of CCC(CC)(NC(=O)c1c(C)nn2c1NC(c1ccccc1)CC2(C)C)c1ccc(C(C)=O)cc1 (stereo not drawn) 200 to 202 °C

----------
melting point overview
Where a name gives a salt, the structure may show the parent alone.

# lookup: melting point of CCC(CC)(c1ccccc1)c1nnc(-c2c(C)nn3c2N[C@@H](c2ccccc2)CC3(C)C)s1 [Example 1145] 174 to 175 °C

# lookup: melting point of O=C(O)c1cnn2c1NC(c1cccc(Cl)c1)CC2C(F)(F)F (stereo not shown) [Example 33] 194 to 195 °C

# lookup: melting point of CCC(CC)(NC(=O)c1cnn2c1NC(c1ccccc1)CC2(C)C)C(C)C (stereo not shown) [Example 620] 155 to 156 °C

Next:
# lookup: melting point of CCOC(=O)c1ccc(C(CC)(CC)NC(=O)c2c(C)nn3c2N[C@@H](c2ccccc2)CC3(C)C)cc1 (as salt: HCl) [Example 1074] 125 to 126 °C

----------
Counter-ions that a name gives are not always drawn.
melting point overview

As a guide, the following entries are already answered.
# lookup: melting point of CCC(CC)(CCSC)NC(=O)c1cnn2c1NC(c1ccccc1)CC2(C)C (stereo not shown) 154 to 155 °C

# lookup: melting point of CCC1(NC(=O)c2cnn3c2NC(c2ccccc2)CC3(C)C)CCCCC1 (stereo not shown) 166 to 167 °C

# lookup: melting point of CNC(=O)c1cnn2c1NC(c1ccccc1)CC2(C)C (stereo not shown) 116 to 117 °C

# lookup: melting point of O=C(CNC(=O)c1cnn2c1N[C@H](c1ccccc1)C[C@@H]2C(F)(F)F)c1cc2ccccc2o1 (stereo in doubt) 244 to 245 °C

# lookup: melting point of CCOC(=O)CCCOc1ccc(C(CC)(CC)NC(=O)c2cnn3c2NC(c2ccccc2)CC3(C)C)cc1 (stereo not shown) 101 to 102 °C

Next:
# lookup: melting point of CCC(CC)(NC(=O)c1cnn2c1N[C@@H](c1ccccc1)CC2(C)C)c1ccc(CO)cc1 (as salt: HCl) 159 to 160 °C

# lookup: melting point of CCC(CC)(NC(=O)c1cnn2c1NC(c1ccccc1)CC2C(F)(F)F)c1ccc(Br)cc1 (stereo not shown) 180 to 181 °C

# lookup: melting point of CC1(NC(=O)c2cnn3c2NC(c2ccccc2)CC3(C)C)CCCCC1 (stereo not shown) 170 to 171 °C

# lookup: melting point of CCc1ccc(C(CC)(CC)NC(=O)c2c(C)nn3c2N[C@@H](c2ccccc2F)CC3(C)C)cc1 (as salt: HCl) 138 to 139 °C

# lookup: melting point of CC(C)(CC1Cc2ccccc2C1)NC(=O)c1cnn2c1NC(c1ccccc1)CC2C(F)(F)F (stereo not shown) 221 to 222 °C

Data credit: patent US9447100B2
